experiment: Observed AUC infinity in JAXC57BL/6J mouse at 10 mg/kg, iv through bolus administration measured after 10 to 240 mins by HPLC-MS analysis; type: ADME, organism-based; design: dose 10 mg/kg, route intravenous, time infinity; settings: C57BL/6J, in vivo
metric: AUC(0-inf) (ng·h/mL)
Write the number in ng·h/mL without appending the unit.

Task: Would you mind telling me what AUC(0-inf) value was observed for Cl.O=C(O)CCc1ccc(OCc2ccc(CN3CCC4(CC3)CC(Cc3ccc(F)cc3)CCO4)cc2)cc1 (stereo unspecified) ?
Output: 1790

----------
assay: Half life in BALB/c mouse liver microsomes at 2 uM by HPLC-MS analysis; format: ADME
Measured half-life at 2 µM, listed per entry.
Write the number in min without appending the unit.

Examples with answers:
compound="Cl.O=C(O)CCc1ccc(OCc2ccc(CN3CCC4(CC3)CC(Cc3ccccc3)CCO4)cc2)cc1 (centres undefined)" units_label=min result_value=8.5
compound="Cc1ccc(CC2CCOC3(CCN(Cc4ccc(COc5ccc(CCC(=O)O)cc5)cc4)CC3)C2)cc1.Cl (centres undefined)" units_label=min result_value=9.6

Task: Would you mind telling me what half-life at 2 µM value was observed for COc1ccc(CC2CCOC3(CCN(Cc4ccc(COc5ccc(CCC(=O)O)cc5)cc4)CC3)C2)cc1.Cl (centres undefined) ?
Output: 11.8

Task: Quick one: Cl.O=C(O)CCc1ccc(OCc2ccc(CN3CCC4(CC3)CC(Cc3ccc(F)cc3)CCO4)cc2)cc1 (centres undefined)
Output: 23.4

----------
target: Free fatty acid receptor 1 (Homo sapiens); assay: Agonist activity at FFA1 receptor (unknown origin)
metric: EC50 (nM)
Write the number in nM without appending the unit.

Task: Record CC#C[C@@H](CC(=O)O)c1ccc(OCc2ccc(CN3CCC4(C=Cc5ccccc54)CC3)cc2)cc1 : what is its EC50 with Free fatty acid receptor 1 (Homo sapiens)?
Output: 233

----------
Target: Free fatty acid receptor 3 (Homo sapiens, UniProt O14843)
Sequence (O14843 whole entry): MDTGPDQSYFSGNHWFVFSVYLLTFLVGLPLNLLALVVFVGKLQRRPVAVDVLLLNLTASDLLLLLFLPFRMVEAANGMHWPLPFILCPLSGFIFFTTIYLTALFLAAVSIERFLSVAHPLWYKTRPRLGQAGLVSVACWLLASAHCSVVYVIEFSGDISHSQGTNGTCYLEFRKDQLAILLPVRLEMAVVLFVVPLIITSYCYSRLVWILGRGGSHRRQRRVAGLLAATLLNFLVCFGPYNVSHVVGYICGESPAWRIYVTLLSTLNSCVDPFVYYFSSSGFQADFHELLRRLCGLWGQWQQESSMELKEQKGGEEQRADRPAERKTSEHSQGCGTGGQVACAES
Experiment: Agonist activity at human FFA3 receptor expressed in CHO cells assessed as induction of Ca2+ flux by fluo-8 dye based FLIPR assay
metric: EC50

Examples with answers:
compound="Cl.O=C(O)CCc1ccc(OCc2ccc(CN3CCC4(CC3)CC(Cc3ccccc3)CCO4)cc2)cc1 (centres undefined)" metric=EC50 result_value="> 10 µM"
compound="Cl.O=C(O)CCc1ccc(OCc2ccc(CN3CCC4(CC3)CC(Cc3ccc(F)cc3)CCO4)cc2)cc1 (centres undefined)" metric=EC50 result_value="> 10 µM"
compound="Cc1ccc(CC2CCOC3(CCN(Cc4ccc(COc5ccc(CCC(=O)O)cc5)cc4)CC3)C2)cc1.Cl (centres undefined)" metric=EC50 result_value="> 10 µM"

// below: EC50 requested for another compound
Task: Record COc1ccc(CC2CCOC3(CCN(Cc4ccc(COc5ccc(CCC(=O)O)cc5)cc4)CC3)C2)cc1.Cl (centres undefined) : what is its EC50 with Free fatty acid receptor 3 (Homo sapiens, UniProt O14843)?
Output: > 10 µM

----------
assay: Apparent permeability from apical to basolateral side in human Caco2 cells at 10 uM by HPLC-MS analysis; assay type: ADME, cell-based; conditions: Caco-2
metric: Papp A→B at 10 µM (×10⁻⁶ cm/s)
Write the number in ×10⁻⁶ cm/s without appending the unit.

compound="Cl.O=C(O)CCc1ccc(OCc2ccc(CN3CCC4(CC3)CC(Cc3ccccc3)CCO4)cc2)cc1 (stereo unspecified)" metric="Papp A→B at 10 µM" result_value=12

Task: Would you mind telling me what Papp A→B at 10 µM value was observed for Cl.O=C(O)CCc1ccc(OCc2ccc(CN3CCC4(CC3)CC(Cc3ccc(F)cc3)CCO4)cc2)cc1 (stereo unspecified) ?
Output: 8.7

Task: Quick one: Cc1ccc(CC2CCOC3(CCN(Cc4ccc(COc5ccc(CCC(=O)O)cc5)cc4)CC3)C2)cc1.Cl (stereo unspecified)
Output: 10.4

Task: Quick one: C[C@]12CC[C@H]3[C@@H](CCC4=CC(=O)CC[C@@]43C)[C@@H]1CC[C@@H]2O [TESTOSTERONE]
Output: 13.6

Task: Quick one: COc1ccc(CC2CCOC3(CCN(Cc4ccc(COc5ccc(CCC(=O)O)cc5)cc4)CC3)C2)cc1.Cl (stereo unspecified)
Output: 15.8

Task: Quick one: CC(C)NCC(O)COc1cccc2ccccc12 (stereo unspecified) [PROPRANOLOL]
Output: 28

----------
assay: Cmax in JAXC57BL/6J mouse at 10 mg/kg, iv through bolus administration measured after 10 to 240 mins by HPLC-MS analysis; format: ADME, organism-based; design: dose 10 mg/kg, route intravenous; settings: C57BL/6J, in vivo
metric: Cmax (ng/mL)
Write the number in ng/mL without appending the unit.

Task: Would you mind telling me what Cmax value was observed for Cl.O=C(O)CCc1ccc(OCc2ccc(CN3CCC4(CC3)CC(Cc3ccc(F)cc3)CCO4)cc2)cc1 (stereo unspecified) ?
Output: 2770

----------
assay: Oral bioavailability in JAXC57BL/6J mouse at 10 mg/kg administered through plastic gavage as single dose measured up to 240 mins by HPLC-MS analysis; type: ADME, organism-based; conditions: C57BL/6J, in vivo
metric: bioavailability (%)
Write the number in % without appending the unit.

Task: Would you mind telling me what bioavailability value was observed for Cl.O=C(O)CCc1ccc(OCc2ccc(CN3CCC4(CC3)CC(Cc3ccc(F)cc3)CCO4)cc2)cc1 (stereo unspecified) ?
Output: 10.3

----------
Measured CLint at 40 min, 2 µM, listed per entry.
assay: Intrinsic clearance in BALB/c mouse liver microsomes at 2 uM up to 40 mins by HPLC-MS analysis; assay type: ADME
Write the number in µL/min/mg without appending the unit.

compound="Cl.O=C(O)CCc1ccc(OCc2ccc(CN3CCC4(CC3)CC(Cc3ccccc3)CCO4)cc2)cc1 (centres undefined)" result_value=196
compound="COc1ccc(CC2CCOC3(CCN(Cc4ccc(COc5ccc(CCC(=O)O)cc5)cc4)CC3)C2)cc1.Cl (centres undefined)" result_value=141
compound="Cl.O=C(O)CCc1ccc(OCc2ccc(CN3CCC4(CC3)CC(Cc3ccc(F)cc3)CCO4)cc2)cc1 (centres undefined)" result_value=71.3

// below: CLint at 40 min, 2 µM requested for another compound
Task: Would you mind telling me what CLint at 40 min, 2 µM value was observed for Cc1ccc(CC2CCOC3(CCN(Cc4ccc(COc5ccc(CCC(=O)O)cc5)cc4)CC3)C2)cc1.Cl (centres undefined) ?
Output: 173

----------
assay: Tmax in JAXC57BL/6J mouse at 10 mg/kg, iv through bolus administration measured after 10 to 240 mins by HPLC-MS analysis; format: ADME, organism-based; settings: C57BL/6J, in vivo
metric: Tmax (min)
Write the number in min without appending the unit.

Task: Would you mind telling me what Tmax value was observed for Cl.O=C(O)CCc1ccc(OCc2ccc(CN3CCC4(CC3)CC(Cc3ccc(F)cc3)CCO4)cc2)cc1 (stereo unspecified) ?
Output: 10

----------
test: Observed AUC infinity in JAXC57BL/6J mouse at 10 mg/kg, po administered through plastic gavage as single dose measured up to 240 mins by HPLC-MS analysis; format: ADME, organism-based; parameters: dose 10 mg/kg, time infinity, route oral; details: C57BL/6J, in vivo
metric: AUC(0-inf) (ng·h/mL)
Write the number in ng·h/mL without appending the unit.

Task: Would you mind telling me what AUC(0-inf) value was observed for Cl.O=C(O)CCc1ccc(OCc2ccc(CN3CCC4(CC3)CC(Cc3ccc(F)cc3)CCO4)cc2)cc1 (stereo unspecified) ?
Output: 184

----------
Measured log10 EC50, listed per entry.
biological target: Free fatty acid receptor 1 (Homo sapiens, UniProt O14842); experiment: Agonist activity at human FFA1 receptor expressed in CHO cells assessed as induction of Ca2+ flux by fluo-8 dye based FLIPR assay; assay type: functional, cell-based
Sequence (O14842 whole entry): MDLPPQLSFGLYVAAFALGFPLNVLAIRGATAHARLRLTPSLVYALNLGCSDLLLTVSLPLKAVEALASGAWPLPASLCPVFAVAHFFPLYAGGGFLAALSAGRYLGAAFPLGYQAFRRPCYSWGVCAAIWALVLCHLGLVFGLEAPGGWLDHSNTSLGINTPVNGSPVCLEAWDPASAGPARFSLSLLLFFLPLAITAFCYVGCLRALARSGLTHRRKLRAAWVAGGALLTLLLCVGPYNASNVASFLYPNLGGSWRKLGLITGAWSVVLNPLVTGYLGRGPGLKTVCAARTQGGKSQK
Quick note: numbers are log10 of EC50, with nM as the unit.

compound="O=C(O)CCc1ccc(OCc2ccc(CN3CCC4(CC3)CC(OCc3ccc(F)cc3)CCO4)cc2)cc1 (centres undefined)" result_value=3.30
compound="O=C(O)CCc1ccc(OCc2ccc(CN3CCC4(CC3)CC(Cc3ccc(C(F)(F)F)cc3)CCO4)cc2)cc1 (centres undefined)" result_value=3.10
compound="Cl.O=C(O)CCc1ccc(OCc2ccc(CN3CCC4(CC3)CC(Cc3ccccc3)CCO4)cc2)cc1 (centres undefined)" result_value=1.74
compound="O=C(O)CCc1ccc(OCc2ccc(CN3CCC4(CC3)CC(OCc3cccc(F)c3)CCO4)cc2)cc1 (centres undefined)" result_value=3.11

Task: Would you mind telling me what log10 EC50 value was observed for Cc1ccc(CC2CCOC3(CCN(Cc4ccc(COc5ccc(CCC(=O)O)cc5)cc4)CC3)C2)cc1.Cl (centres undefined) ?
Output: 1.89
